Test system: A2780
ASSAY NAME: Anti-proliferative effect (CellTiter-Glo, 72 h), A2780
Format: cell-based
CONDITION DETAILS: A2780 cells, median, read-out: IC50 antiproliferation assay A2780 [M] (median)
RECORDED ENDPOINT: IC50 (M)
Answers are plain numbers, in M.

Example results:
COMPOUND	UNIT STRING	IC50
CCc1nn(C)c2c1-c1cccc3c(CCCOc4cccc5cc(Cl)ccc45)c(C(=O)O)n(c13)CCCCOC2 (single isomer, unassigned; enantiomer 2) [Example 306]	M	1.02e-05
Cc1ccc2c(CCCOc3cccc4ccccc34)c(C(=O)O)n3c2c1-c1c(C)nn(C)c1COCCC3 (single isomer, unassigned; enantiomer 2) [Example 026]	M	1.97e-05
CCc1nn(C)c2c1-c1c(C)ccc3c(CCCOc4cccc5cc(F)ccc45)c(C(=O)O)n(c13)CCCCOC2 (single isomer, unassigned)	M	2.29e-05
Cn1nc2c(c1OC(F)F)-c1cccc3c(CCCOc4cccc5ccccc45)c(C(=O)O)n(c13)CCCCOC2 (single isomer, unassigned)	M	2.6e-05
Cc1c2c(nn1C)COCCCCn1c(C(=O)O)c(CCCOc3cccc4cc(C(F)(F)F)ccc34)c3cccc-2c31 (single isomer, unassigned; enantiomer 2)	M	1.05e-05

For every record below, what is its IC50?
1. Cc1nn(C)c2c1-c1cccc3c(CCCOc4cccc5cc(F)ccc45)c(C(=O)O)n(c13)CCCOC2 (single isomer, unassigned; enantiomer 1)
2. Cn1nc(COc2ccc(N3CCOCC3)cc2)c2c1COCC=CCn1c(C(=O)O)c(CCCOc3cccc4ccccc34)c3cccc-2c31 (single isomer, unassigned; enantiomer 2)

1. 2.69e-05
2. 1.11e-05

====

Tested on: SUDHL10
ASSAY NAME: Induction of cytotoxicity (CellTiter-Glo, 5 h), SUDHL10
CONDITION DETAILS: read-out: Cytotox SUDHL10 [M] (median); SUDHL10 cells, cytotoxicity induction, CellTiter-Glo, 5 h incubation, median
Please provide measured IC50 for the entries that follow.
Answers are plain numbers, in M.

List the reported IC50 of each compound below.
1. CCOCc1nn(C)c2c1-c1cccc3c(CCCOc4cccc5ccccc45)c(C(=O)O)n(c13)CCCCOC2 (single isomer, unassigned; enantiomer 2) [Example 170]
2. Cc1nn(C)c2c1-c1cccc3c(CCCOc4ccc(F)c5ccccc45)c(C(=O)O)n(c13)CCCCOC2 (single isomer, unassigned; enantiomer 1) [Example 022]
3. Cc1nn(C)c2c1-c1cccc3c(CCCOc4cccc5ccccc45)c(C(=O)O)n(c13)CCCOC2 (single isomer, unassigned; enantiomer 2)
4. Cc1c2c(nn1CCN1CCOCC1)CN(C)CCCn1c(C(=O)O)c(CCCOc3cccc4ccccc34)c3cccc-2c31 (single isomer, unassigned; enantiomer 2) [Example 061]
5. CN1CCCn2c(C(=O)O)c(CCCOc3cccc4ccccc34)c3cccc(c32)-c2c(CN3CCOCC3)nn(C)c2C1 (single isomer, unassigned; enantiomer 1)

2e-05
2.02e-05
2.89e-05
1.75e-05
1.48e-05

Below are some compounds; for each one, tell me its IC50.
1. O=C(O)c1c(CCCOc2cccc3ccccc23)c2cccc3c2n1CCCCOCc1nn2c(c1-3)COCC2 (single isomer, unassigned)
2. COc1c2c(nn1C)COCCCCn1c(C(=O)O)c(CCCOc3cccc4ccccc34)c3cccc-2c31 (single isomer, unassigned) [Example 208]
3. Cc1ccc2c(CCCOc3cccc4ccccc34)c(C(=O)O)n3c2c1-c1c(nn(C)c1C)CN(C)CCC3 (single isomer, unassigned; enantiomer 1) [Example 073]

2.09e-05
9.98e-06
3.67e-06

For every item in the list below, what is its measured IC50?
1. Cn1nc(COc2ccc(S(C)(=O)=O)cc2)c2c1COCC=CCn1c(C(=O)O)c(CCCOc3cccc4ccccc34)c3cccc-2c31 (single isomer, unassigned) [Example 1-53]
2. CCc1c2c(nn1CCN1CCOCC1)COCCCCn1c(C(=O)O)c(CCCOc3cccc4ccccc34)c3ccc(C)c-2c31 (single isomer, unassigned; enantiomer 1) [Example 205]
3. Cc1ccc2c(C(C)CCOc3cccc4ccccc34)c(C(=O)O)n3c2c1-c1c(C)nn(C)c1COCCCC3 (single isomer, unassigned) [Example 260]

1. 7.89e-06
2. 2.92e-06
3. 1.18e-05
